- Test system: Echinochloa crus-galli
- method-notes: Pre-emergence test
- Type: in vivo
- test-settings: 0.100 kg/ha, 3 weeks after treatment
quantity-measured: Assessment (pre-emergence application) ECHCG

compound: Cc1cc(C#Cc2ccccc2)nc(Oc2cc(C(F)(F)F)nn2C)c1 [Example 1]
target-entity: Echinochloa crus-galli
recorded-value: 5 (5-Definite injury)
--
compound: Cn1nc(C(F)(F)F)cc1Oc1cccc(C#Cc2ccccc2)n1 [Example 31]
target-entity: Echinochloa crus-galli
recorded-value: 2 (2-Slight effect)
--
compound: Cc1cc(C#Cc2ccc(F)cc2)nc(Oc2cc(C(F)(F)F)nn2C)c1 [Example 2]
target-entity: Echinochloa crus-galli
recorded-value: 6 (6-Herbicidal effect)

Assessment (pre-emergence application) ECHCG in this record for Cc1cc(Oc2cc(C(F)(F)F)nn2C)nc(C#Cc2ccccc2)n1 [Example 161] : 1 (1-Trace effect)

Assessment (pre-emergence application) ECHCG in this record for COc1cc(C#Cc2ccccc2)nc(Oc2cc(C(F)(F)F)nn2C)c1 [Example 27] : 4 (4-Injury)

----------
- Test system: Stellaria media
- method-notes: Post-emergence herbicidal activity test
- Format: in vivo
- test-settings: 0.400 kg/ha, 2-4 weeks after treatment
quantity-measured: Post-emergence application STEME

Study these solved cases before continuing.
chemical-string: Cc1cc(C#Cc2ccccc2)nc(Oc2cc(C(F)(F)F)nn2C)c1
target-entity: Stellaria media
Post-emergence application STEME: 7 (7-Good herbicidal effect)
--
chemical-string: COc1cc(C#Cc2ccccc2)nc(Oc2cc(C(F)(F)F)nn2C)c1
target-entity: Stellaria media
Post-emergence application STEME: 8 (8-Approaching complete kill)
--
chemical-string: Cn1nc(C(F)(F)F)cc1Oc1cccc(C#Cc2ccccc2)n1
target-entity: Stellaria media
Post-emergence application STEME: 6 (6-Herbicidal effect)

Now let's try a different one.
Cc1cc(Oc2cc(C(F)(F)F)nn2C)nc(C#Cc2ccccc2)n1 tested on Stellaria media gave Post-emergence application STEME: 4 (4-Injury)

----------
Consider the following compounds and their measured Assessment (pre-emergence application) GLXMA readings.
- Tested on: Glycine max
- method-notes: Pre-emergence test
- Type: in vivo
- test-settings: 0.400 kg/ha, 3 weeks after treatment

Study these solved cases before continuing.
chemical-string: Cc1cc(C#Cc2ccccc2)nc(Oc2cc(C(F)(F)F)nn2C)c1
recorded-value: 4 (4-Injury)
--
chemical-string: Cc1cc(C#Cc2ccc(F)cc2)nc(Oc2cc(C(F)(F)F)nn2C)c1
recorded-value: 3 (3-Moderate effect)
--
chemical-string: Cc1cc(Oc2cc(C(F)(F)F)nn2C)nc(C#Cc2ccccc2)n1
recorded-value: 1 (1-Trace effect)
--
chemical-string: Cn1nc(C(F)(F)F)cc1Oc1cccc(C#Cc2ccccc2)n1
recorded-value: 1 (1-Trace effect)
--
chemical-string: Cc1cc(C#C[Si](C)(C)C)nc(Oc2cc(C(F)(F)F)nn2C)c1
recorded-value: 2 (2-Slight effect)

Now let's try a different one.
Assessment (pre-emergence application) GLXMA in this record for COc1cc(C#Cc2ccccc2)nc(Oc2cc(C(F)(F)F)nn2C)c1 : 3 (3-Moderate effect)

----------
- Test system: Digitaria sanguinalis
- method-notes: Post-emergence herbicidal activity test
- Assay type: in vivo
- test-settings: 0.100 kg/ha, 2-4 weeks after treatment
quantity-measured: Post-emergence application DIGSA

compound: COc1cc(C#Cc2ccccc2)nc(Oc2cc(C(F)(F)F)nn2C)c1 [Example 27]
recorded-value: 4 (4-Injury)
--
compound: Cc1cc(Oc2cc(C(F)(F)F)nn2C)nc(C#Cc2ccccc2)n1 [Example 161]
recorded-value: 2 (2-Slight effect)
--
compound: Cn1nc(C(F)(F)F)cc1Oc1cccc(C#Cc2ccccc2)n1 [Example 31]
recorded-value: 4 (4-Injury)

Now let's try a different one.
Post-emergence application DIGSA in this record for Cc1cc(C#Cc2ccccc2)nc(Oc2cc(C(F)(F)F)nn2C)c1 [Example 1] : 7 (7-Good herbicidal effect)

----------
- Test system: Setaria viridis
- method-notes: Post-emergence herbicidal activity test
- Format: in vivo
- test-settings: 0.100 kg/ha, 2-4 weeks after treatment
quantity-measured: Post-emergence application SETVI

Study these solved cases before continuing.
chemical-string: Cc1cc(C#Cc2ccc(F)cc2)nc(Oc2cc(C(F)(F)F)nn2C)c1
quantity-measured: Post-emergence application SETVI
recorded-value: 7 (7-Good herbicidal effect)

chemical-string: COc1cc(C#Cc2ccccc2)nc(Oc2cc(C(F)(F)F)nn2C)c1
quantity-measured: Post-emergence application SETVI
recorded-value: 7 (7-Good herbicidal effect)

chemical-string: Cc1cc(C#Cc2ccccc2)nc(Oc2cc(C(F)(F)F)nn2C)c1
quantity-measured: Post-emergence application SETVI
recorded-value: 8 (8-Approaching complete kill)

chemical-string: Cc1cc(Oc2cc(C(F)(F)F)nn2C)nc(C#Cc2ccccc2)n1
quantity-measured: Post-emergence application SETVI
recorded-value: 4 (4-Injury)

Now let's try a different one.
Cn1nc(C(F)(F)F)cc1Oc1cccc(C#Cc2ccccc2)n1 tested on Setaria viridis gave Post-emergence application SETVI: 5 (5-Definite injury)

----------
Consider the following compounds and their measured Assessment (pre-emergence application) ALOMY readings.
- Test system: Alopecurus myosuroides
- method-notes: Pre-emergence test
- Assay type: in vivo
- test-settings: 0.025 kg/ha, 3 weeks after treatment

Study these solved cases before continuing.
chemical-string: COc1cc(C#Cc2ccccc2)nc(Oc2cc(C(F)(F)F)nn2C)c1
recorded-value: 2 (2-Slight effect)
//
chemical-string: Cc1cc(C#Cc2ccccc2)nc(Oc2cc(C(F)(F)F)nn2C)c1
recorded-value: 2 (2-Slight effect)
//
chemical-string: Cc1cc(C#Cc2ccc(F)cc2)nc(Oc2cc(C(F)(F)F)nn2C)c1
recorded-value: 2 (2-Slight effect)
//
chemical-string: Cc1cc(Oc2cc(C(F)(F)F)nn2C)nc(C#Cc2ccccc2)n1
recorded-value: 9 (9-Complete kill)

Now let's try a different one.
Cn1nc(C(F)(F)F)cc1Oc1cccc(C#Cc2ccccc2)n1 tested on Alopecurus myosuroides gave Assessment (pre-emergence application) ALOMY: 0 (0-No effect)

----------
- Test system: Galium aparine
- method-notes: Pre-emergence test
- Type: in vivo
- test-settings: 0.025 kg/ha, 3 weeks after treatment
quantity-measured: Assessment (pre-emergence application) GALAP

Study these solved cases before continuing.
compound: COc1cc(C#Cc2ccccc2)nc(Oc2cc(C(F)(F)F)nn2C)c1 [Example 27]
recorded-value: 1 (1-Trace effect)
//
compound: Cc1cc(C#Cc2ccccc2)nc(Oc2cc(C(F)(F)F)nn2C)c1 [Example 1]
recorded-value: 2 (2-Slight effect)
//
compound: Cc1cc(Oc2cc(C(F)(F)F)nn2C)nc(C#Cc2ccccc2)n1 [Example 161]
recorded-value: 1 (1-Trace effect)

Now let's try a different one.
Assessment (pre-emergence application) GALAP in this record for Cn1nc(C(F)(F)F)cc1Oc1cccc(C#Cc2ccccc2)n1 [Example 31] : 1 (1-Trace effect)

----------
- System: Echinochloa crus-galli
- method-notes: Pre-emergence test
- Format: in vivo
- test-settings: 0.400 kg/ha, 3 weeks after treatment
- Description: To evaluate their herbicidal activity, compounds according to the invention are tested using a representative range of plants: The pre-emergence tests involve spraying a liquid formulation of the compound onto the soil in which the seeds of the plant species mentioned above has recently been sown. The soil used in the tests is a prepared horticultural loam. […]
Consider the following molecules and their measured Assessment (pre-emergence application) ECHCG readings.

Study these solved cases before continuing.
chemical-string: Cc1cc(C#Cc2ccc(F)cc2)nc(Oc2cc(C(F)(F)F)nn2C)c1
target-entity: Echinochloa crus-galli
recorded-value: 7 (7-Good herbicidal effect)
--
chemical-string: Cc1cc(Oc2cc(C(F)(F)F)nn2C)nc(C#Cc2ccccc2)n1
target-entity: Echinochloa crus-galli
recorded-value: 3 (3-Moderate effect)
--
chemical-string: Cc1cc(C#C[Si](C)(C)C)nc(Oc2cc(C(F)(F)F)nn2C)c1
target-entity: Echinochloa crus-galli
recorded-value: 5 (5-Definite injury)

Assessment (pre-emergence application) ECHCG in this record for Cn1nc(C(F)(F)F)cc1Oc1cccc(C#Cc2ccccc2)n1 : 5 (5-Definite injury)

Assessment (pre-emergence application) ECHCG in this record for Cc1cc(C#Cc2ccccc2)nc(Oc2cc(C(F)(F)F)nn2C)c1 : 8 (8-Approaching complete kill)

Assessment (pre-emergence application) ECHCG in this record for COc1cc(C#Cc2ccccc2)nc(Oc2cc(C(F)(F)F)nn2C)c1 : 7 (7-Good herbicidal effect)

----------
- System: Orysa sativa
- method-notes: Pre-emergence test
- Assay type: in vivo
- test-settings: 0.100 kg/ha, 3 weeks after treatment
Consider the following compounds and their measured Assessment (pre-emergence application) ORYSA readings.

Study these solved cases before continuing.
chemical-string: Cc1cc(C#Cc2ccccc2)nc(Oc2cc(C(F)(F)F)nn2C)c1
recorded-value: 3 (3-Moderate effect)
--
chemical-string: COc1cc(C#Cc2ccccc2)nc(Oc2cc(C(F)(F)F)nn2C)c1
recorded-value: 1 (1-Trace effect)
--
chemical-string: Cn1nc(C(F)(F)F)cc1Oc1cccc(C#Cc2ccccc2)n1
recorded-value: 1 (1-Trace effect)

Assessment (pre-emergence application) ORYSA in this record for Cc1cc(Oc2cc(C(F)(F)F)nn2C)nc(C#Cc2ccccc2)n1 : 1 (1-Trace effect)

src = patent US6872690B2
